Where these numbers come from: patent US20110224231A1

tested target: soluble human BACE (Homo sapiens, UniProt P56817)
Construct: cells secreting human recombinant soluble BACE; made in house; conditioned medium
Sequence (P56817 46-457 limits assumed): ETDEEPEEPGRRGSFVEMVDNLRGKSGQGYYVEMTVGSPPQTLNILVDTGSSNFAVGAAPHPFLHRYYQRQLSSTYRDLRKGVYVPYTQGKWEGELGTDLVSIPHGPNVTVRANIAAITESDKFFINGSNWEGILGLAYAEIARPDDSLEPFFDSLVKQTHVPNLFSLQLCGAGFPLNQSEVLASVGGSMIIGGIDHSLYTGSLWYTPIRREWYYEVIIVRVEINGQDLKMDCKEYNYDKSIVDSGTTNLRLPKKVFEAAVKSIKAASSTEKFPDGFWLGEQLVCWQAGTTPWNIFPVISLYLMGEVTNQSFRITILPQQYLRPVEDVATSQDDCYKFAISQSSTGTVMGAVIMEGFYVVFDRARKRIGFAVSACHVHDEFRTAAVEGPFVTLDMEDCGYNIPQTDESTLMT
assay comment: BACE activity Cell Free Assay (ELISA of cleaved synthetic APP substrate)
Format: biochemical
// reported IC50 per item

Here is how some compounds turned out for IC50.
{"compound": "C[C@H]1C[C@@]2(C=CC(=O)N2c2cccc(F)c2)CCN1Cc1ncoc1-c1ccccc1 [#207]", "tested target": "soluble human BACE (Homo sapiens, UniProt P56817)", "IC50": "10 to 100 µM"}
{"compound": "CC1CC2(C=CC(=O)N2c2cccc(F)c2)CCN1Cc1cccc(-c2cncc(C#N)c2)c1 (racemic) [Example 25]", "tested target": "soluble human BACE (Homo sapiens, UniProt P56817)", "IC50": "10 to 100 µM"}
{"compound": "CCCOc1cccc(CN2CCC3(CCC(=O)N3c3cccc(F)c3)CC2C)c1 (racemic) [Example 46]", "tested target": "soluble human BACE (Homo sapiens, UniProt P56817)", "IC50": "10 to 100 µM"}
{"compound": "CCOc1cccc(CN2CCC3(C=CC(=O)N3c3cccc(F)c3)CC2C)c1 (racemic) [Example 1]", "tested target": "soluble human BACE (Homo sapiens, UniProt P56817)", "IC50": "10 to 100 µM"}
{"compound": "COc1cc(CN2CCC3(C=CC(=O)N3c3cccc(F)c3)CC2C)ccc1O (racemic) [Example 12]", "tested target": "soluble human BACE (Homo sapiens, UniProt P56817)", "IC50": "1 to 10 µM"}

With those in mind, consider the next compound.
Qu. Dear colleague, I am looking for the recorded IC50 of the following compound: Cc1cncc(N2C(=O)C=C[C@]23CCN(Cc2cccc(OC(C)C)c2)[C@@H](C)C3)c1 [#114]
Ans. 1 to 10 µM
